# test_target: SHP2-C SH2;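 further: peptide library displayed on the E. coli surface as eCPX fusions, selected cells deep-sequenced, score is each peptide's frequency after selection divided by its frequency in the input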
# measurement_description: SH2 binding enrichment of the phosphorylated peptide, bacterial display (enrichment ratio); higher = better substrate or ligand; peptides without Tyr show the background
endpoint_label: SH2 binding enrichment

Previously resolved entries follow.
[
  {
    "sequence_content": "LPKDLYLISQM [LARP4_Y141_S137P]",
    "endpoint_label": "SH2 binding enrichment",
    "obs_value": 0.795
  },
  {
    "sequence_content": "RHTRSYDFTEG [FGF7_Y56_M59T_YF]",
    "endpoint_label": "SH2 binding enrichment",
    "obs_value": 0.611
  },
  {
    "sequence_content": "LFNQDYPIHCV [GATM_Y227_S231C_YF]",
    "endpoint_label": "SH2 binding enrichment",
    "obs_value": 0.806
  },
  {
    "sequence_content": "PEPTGYSAELS [EZR_Y499_A494P]",
    "endpoint_label": "SH2 binding enrichment",
    "obs_value": 0.63
  },
  {
    "sequence_content": "PIFEGYGLPHA [ACTA1_Y171_A172G_YF]",
    "endpoint_label": "SH2 binding enrichment",
    "obs_value": 0.581
  }
]

P. SAAAIYMVRHP [PMP22_Y117_T118M]
Q. ESKAGYRVPRS [CLDN7_Y195]
Sort P and Q by SH2 binding enrichment descending and give the first. Mark your answer with the label of the selected entry.
P

I. HCHEGYILHGA [SVEP1_Y2921]
II. KGIDRYNPENL [EIF3K_Y21]
Please indicate which item has the smaller measured SH2 binding enrichment: I versus II When you have decided, please share the label of that item.
II

---

# test_target: EPHB1 (UniProt P54762)
# Sequence (P54762 whole entry, looked up): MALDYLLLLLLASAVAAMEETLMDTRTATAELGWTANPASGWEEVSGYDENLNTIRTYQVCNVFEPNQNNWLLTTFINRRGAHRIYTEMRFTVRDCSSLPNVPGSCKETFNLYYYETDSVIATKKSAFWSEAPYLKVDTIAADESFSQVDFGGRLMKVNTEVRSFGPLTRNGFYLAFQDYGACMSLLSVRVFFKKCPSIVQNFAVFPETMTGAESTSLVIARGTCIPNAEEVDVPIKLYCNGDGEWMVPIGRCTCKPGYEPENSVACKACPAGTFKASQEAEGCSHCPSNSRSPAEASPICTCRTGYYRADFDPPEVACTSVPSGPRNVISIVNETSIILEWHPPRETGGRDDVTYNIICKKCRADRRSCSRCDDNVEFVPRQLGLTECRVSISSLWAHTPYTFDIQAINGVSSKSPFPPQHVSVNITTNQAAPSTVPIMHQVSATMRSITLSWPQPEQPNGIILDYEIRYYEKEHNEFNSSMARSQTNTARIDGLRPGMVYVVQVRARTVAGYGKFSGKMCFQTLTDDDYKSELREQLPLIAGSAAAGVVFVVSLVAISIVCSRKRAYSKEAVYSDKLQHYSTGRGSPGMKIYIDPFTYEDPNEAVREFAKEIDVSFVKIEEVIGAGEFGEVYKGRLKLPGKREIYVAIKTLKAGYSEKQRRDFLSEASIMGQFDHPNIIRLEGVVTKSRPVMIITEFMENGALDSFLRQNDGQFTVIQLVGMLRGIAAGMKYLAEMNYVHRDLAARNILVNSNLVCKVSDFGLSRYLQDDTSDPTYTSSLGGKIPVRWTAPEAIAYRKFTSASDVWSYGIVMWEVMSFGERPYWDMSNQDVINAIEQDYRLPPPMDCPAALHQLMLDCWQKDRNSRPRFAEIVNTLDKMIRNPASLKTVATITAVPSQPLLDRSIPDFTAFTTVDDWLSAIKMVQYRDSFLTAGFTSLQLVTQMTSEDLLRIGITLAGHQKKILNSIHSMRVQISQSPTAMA
# measurement_description: phosphorylation enrichment, bacterial display (enrichment ratio); higher = better substrate or ligand; peptides without Tyr show the background
// reported phosphorylation enrichment for each item listed
A bare number is all that is needed in reply.

// below: answered sequences
[
  {
    "sequence_content": "DFLEKYFKFGC [NNMT_Y24_S29C_YF]",
    "test_target": "EPHB1 (UniProt P54762)",
    "endpoint_label": "phosphorylation enrichment",
    "obs_value": 0.55
  },
  {
    "sequence_content": "TDVSLYPSGGT [TENM4_Y399]",
    "test_target": "EPHB1 (UniProt P54762)",
    "endpoint_label": "phosphorylation enrichment",
    "obs_value": 0.331
  },
  {
    "sequence_content": "FSLIHYASIVD [MYH7_Y582_G584S]",
    "test_target": "EPHB1 (UniProt P54762)",
    "endpoint_label": "phosphorylation enrichment",
    "obs_value": 0.83
  },
  {
    "sequence_content": "PIAPVYAPSMV [ACAT1_Y331_A333P]",
    "test_target": "EPHB1 (UniProt P54762)",
    "endpoint_label": "phosphorylation enrichment",
    "obs_value": 2.4
  },
  {
    "sequence_content": "SKGYAYVHFDS [PABPC5_Y149]",
    "test_target": "EPHB1 (UniProt P54762)",
    "endpoint_label": "phosphorylation enrichment",
    "obs_value": 0.575
  },
  {
    "sequence_content": "RHTRSYDFTEG [FGF7_Y56_M59T_YF]",
    "test_target": "EPHB1 (UniProt P54762)",
    "endpoint_label": "phosphorylation enrichment",
    "obs_value": 0.377
  }
]

Attention now shifts to the item below.
Value wanted: phosphorylation enrichment (EPHB1 (UniProt P54762)) of entry TRSFDYTEGGD [FGF7_Y58_M59T_YF]
0.569
